Where do the numbers come from? From a melting point compilation (Tetko et al.; mined from patent text by program, amines drawn as free bases though some values may be those of a salt).

Collected melting point values appear next to each entry.

Below: 3 molecules and their reported melting point.
molecule	reported_property	measurement
COc1ccc(-c2c3c(cc4ccc(OCc5ccccc5)cc24)C(=O)NC3=O)cc1	melting point	208 to 210 °C
CC1(C)Oc2ccc3nc(Cl)ccc3c2C(NCCc2ccccc2)C1O (configuration not stated)	melting point	141 to 143 °C
O=C1CCC2=C(c3ccc(Cl)cc3)c3ccccc3C2N1 (configuration not stated)	melting point	236 to 238 °C

For the next question, use this molecule.
What melting point value was documented for this molecule, CSc1cc2ccc(-c3ccccc3)cc2cc1OS(=O)(=O)C(F)(F)F ?
87.8 to 88.7 °C
